// data source = patent US11377442B2

molecular target: NR2F6 (Homo sapiens, UniProt P10588); construct: expressed in transfected cells; also transient transfection; test: NR2F6 agonist screening, Firefly signal cmpd/DMSO; format: cell-based; details: Table 13; ratio Firefly/Renilla, NR2F6 stable clone F4
QUANTITY_NAME: Firefly/Renilla (NR2F6 stable, clone F4)

MOL_SMILES	MEASUREMENT
CC(C)(C)c1ccc(S(=O)(=O)c2cc3cc(Br)ccc3oc2=O)cc1	1.2
O=c1oc2ccc(Cl)cc2cc1S(=O)(=O)c1cccc(F)c1	1.2
O=c1oc2ccc(F)cc2cc1S(=O)(=O)c1ccc(F)cc1	1.6
O=c1oc2ccc([N+](=O)[O-])cc2cc1S(=O)(=O)c1ccc(F)cc1	1.4
Cc1ccc(S(=O)(=O)c2cc3cc(C(=O)Nc4cc(C)cc(C)c4)ccc3oc2=O)cc1	1.1
O=C(NCCc1ccccc1)c1ccc2oc(=O)c(S(=O)(=O)c3ccccc3)cc2c1	1.1
Cc1ccc(S(=O)(=O)c2cc3cc(Cl)ccc3oc2=O)cc1Cl	1.2
O=c1oc2ccc(Cl)cc2cc1S(=O)(=O)c1cc(F)cc(F)c1	1.3

====

experiment: PK in mice plasma; type: in vivo; details: mouse; Table 41; IV plasma, 1.12 mg/kg

COMPOUND	clearance (mL/min/kg)
COCCN[C@H]1CS(=O)(=O)C[C@@H]1S(=O)(=O)c1ccc(Cl)cc1 [Compound D136]	150

====

Biological target: NR2F6 (Homo sapiens)
Construct: expressed in transfected cells; also transient transfection
Sequence (P10588 1-404): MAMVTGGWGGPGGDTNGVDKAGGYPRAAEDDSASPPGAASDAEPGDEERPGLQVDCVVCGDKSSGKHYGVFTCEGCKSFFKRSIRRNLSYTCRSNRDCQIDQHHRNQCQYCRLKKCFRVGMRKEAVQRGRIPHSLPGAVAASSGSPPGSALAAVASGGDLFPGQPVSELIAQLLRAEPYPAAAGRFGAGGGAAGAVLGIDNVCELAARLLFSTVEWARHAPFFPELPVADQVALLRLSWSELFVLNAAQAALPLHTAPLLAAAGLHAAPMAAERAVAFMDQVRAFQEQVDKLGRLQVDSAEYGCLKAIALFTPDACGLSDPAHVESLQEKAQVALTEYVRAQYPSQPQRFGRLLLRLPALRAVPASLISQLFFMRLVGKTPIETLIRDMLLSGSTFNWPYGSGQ
Assay: NR2F6 agonist screening, Firefly signal cmpd/DMSO
Format: cell-based
Settings: Table 15; 40 uM
Firefly F4, cmpd/DMSO (mean) values by entry
QUANTITY_NAME: Firefly F4, cmpd/DMSO (mean)

COMPOUND	MEASUREMENT
CCOC(=O)c1cnc2c(C)cc(C)cc2c1NCCCN1CCCCC1 [Compound Z9]	1.2
CCOC(=O)c1cnc2c(C)cc(C)cc2c1N1CCC(C)CC1	0.8
CCOC(=O)c1cnc2c(C)cc(C)cc2c1NCCCN1CCCCC1 [Compound Z17]	0.6
CCOC(=O)c1cnc2c(C)cc(C)cc2c1N1CCC(N(C)C)CC1	1.2
Cc1ccc(NC(=O)c2noc3c2CC(C)(C)CC3)cc1C	0.8
COc1cccc(-c2noc(Cn3ncc4ccccc4c3=O)n2)c1	1.1
CCOC(=O)c1cnc2c(C)cc(C)cc2c1NCCCN	0.8
CCOC(=O)c1cnc2c(C)cc(C)cc2c1NCCCO	1.0
CCOC(=O)c1cnc2c(C)cc(C)cc2c1NCCCN1CCCCC1 [Compound Z12]	0.4
COc1ccc(-c2noc(Cn3ncc4ccccc4c3=O)n2)cc1	1.0
CS(=O)(=O)Nc1ccc([N+](=O)[O-])c2nonc12	1.6
COc1cccc(-c2noc(Cn3ncc(Cl)cc3=O)n2)c1	0.8
CCOC(=O)c1cnc2c(C)cc(C)cc2c1NCCCN1CCCCC1 [Compound Z19]	0.7
CCOC(=O)c1cnc2c(C)cc(C)cc2c1NCc1ccc(Cl)cc1	0.8
COc1cccc(-c2noc(Cn3nccc(Cl)c3=O)n2)c1	1.6
CCOC(=O)c1cnc2c(C)cc(C)cc2c1NCCCN1CCCCC1 [Compound Z10]	0.7
CC(=O)Nc1ccc(Br)c2nonc12	1.2
CCOC(=O)c1cnc2c(C)cc(C)cc2c1NCCCN1CCCCC1 [Compound Z11]	0.5
CCOC(=O)c1cnc2c(C)cc(C)cc2c1NCCCOC	0.8
CCOC(=O)c1cnc2c(C)cc(C)cc2c1NCCCN1CCCCC1 [Compound Z8]	0.7
CCOC(=O)c1cnc2c(C)cc(C)cc2c1N1CCC(O)CC1	1.6
CCOC(=O)c1cnc2c(C)cc(C)cc2c1NCCCN1CCCC1	0.8
COc1cccc(-c2noc(Cn3ncccc3=O)n2)c1	1.2
CC(=O)Nc1ccc(NS(C)(=O)=O)c2nonc12	0.9
Cc1ccc(NC(=O)c2n[nH]c3c2CCCCC3)cc1C	0.6

====

Target: NR2F6 (Homo sapiens)
Construct: expressed in transfected cells; also transient transfection
Sequence (P10588 1-404): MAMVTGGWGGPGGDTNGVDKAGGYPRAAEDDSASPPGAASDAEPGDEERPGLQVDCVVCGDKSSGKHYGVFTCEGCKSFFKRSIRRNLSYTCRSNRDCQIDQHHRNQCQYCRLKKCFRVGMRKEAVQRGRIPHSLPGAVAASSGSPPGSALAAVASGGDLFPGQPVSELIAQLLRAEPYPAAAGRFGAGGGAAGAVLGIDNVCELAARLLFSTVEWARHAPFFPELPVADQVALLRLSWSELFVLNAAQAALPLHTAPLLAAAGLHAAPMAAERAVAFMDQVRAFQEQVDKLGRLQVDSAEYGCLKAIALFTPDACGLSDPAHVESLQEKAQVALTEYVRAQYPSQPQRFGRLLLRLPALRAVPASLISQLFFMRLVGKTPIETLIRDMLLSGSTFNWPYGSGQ
Test: NR2F6 agonist screening, Firefly signal cmpd/DMSO
Assay type: cell-based
Conditions: first set screening, 10 μM, repeat 2
Entries annotated with measured Firefly, cmpd/DMSO repeat 2

COMPOUND	TARGET_SYSTEM	Firefly, cmpd/DMSO repeat 2
CCc1cccc(Nc2cnn(-c3nc4ccccc4s3)c(=O)c2Cl)c1 [Compound C7]	NR2F6 (Homo sapiens)	2.1
CCn1c(=O)c2cc(C(=O)Nc3ccc4c(C)cc(=O)oc4c3)sc2c2ccccc21 [Compound C16]	NR2F6 (Homo sapiens)	2.3
Cc1ccnc(NC(=O)c2cc3sc4ccccc4c3s2)c1 [Compound 20]	NR2F6 (Homo sapiens)	2.1
O=C(Nc1ccc(Cl)cn1)c1ccc(I)cc1 [Compound 18]	NR2F6 (Homo sapiens)	3.8
COc1cc(Nc2c3c(nc4ccc(Cl)cc24)CCC3)cc(OC)c1OC [Compound C10]	NR2F6 (Homo sapiens)	2.6
O=C(COc1ccccc1C(=O)N1CCOCC1)NCCc1ccccc1 [Compound 22]	NR2F6 (Homo sapiens)	2.9
Cc1ccn2cc(-c3ccc(F)cc3)cc2c1 [Compound 17]	NR2F6 (Homo sapiens)	2.4
O=C(Nc1cccc(O)c1)c1cc(-c2ccc(Cl)c(Cl)c2)on1 [Compound C5]	NR2F6 (Homo sapiens)	1.7
COc1ccc(-c2cc(C(F)(F)F)nc(S(=O)(=O)CCCC(=O)Nc3sc4c(c3C(N)=O)CCCC4)n2)cc1OC [Compound C2]	NR2F6 (Homo sapiens)	2.2
CNC(=O)c1ccc2c(c1)N=C(C)c1cc(C)ccc1S2 [Compound C9]	NR2F6 (Homo sapiens)	1.9
COC(=O)c1ccc2oc(=O)c(S(=O)(=O)c3ccccc3)cc2c1 [Compound C11]	NR2F6 (Homo sapiens)	12.6
CCn1c2c(c(=O)[nH]c1=O)C(c1ccc(C(C)C)cc1)C1=C(N2)c2ccccc2C1=O (stereo not drawn) [Compound 21]	NR2F6 (Homo sapiens)	2.2
CCOC(=O)c1cnn2c(-c3ccc(Cl)cc3)ccnc12 [Compound C4]	NR2F6 (Homo sapiens)	2.5
Cc1ccc(-c2nc3ccccc3c(=O)[nH]2)cc1 [Compound C3]	NR2F6 (Homo sapiens)	2.0
Cc1cc(NC(=O)CCS(=O)(=O)c2nc(-c3ccc4c(c3)OCO4)cc(C(F)(F)F)n2)no1 [Compound C1]	NR2F6 (Homo sapiens)	4.1
COCCNC(=O)c1ccc2c(c1)N=C(C)c1cc(C)ccc1S2 [Compound C8]	NR2F6 (Homo sapiens)	2.8
CCc1cc(C(=O)Nc2ccn(Cc3ccc(C)cc3)n2)no1 [Compound C6]	NR2F6 (Homo sapiens)	1.9
CCc1ccc(OCC(=O)Nc2cc(-c3nc4cc(C)ccc4o3)ccc2C)cc1 [Compound 24]	NR2F6 (Homo sapiens)	2.3
COc1ccc(-c2cn3cccc(C)c3n2)cc1 [Compound 19]	NR2F6 (Homo sapiens)	1.7
O=c1[nH]c(CS(=O)(=O)c2ccccc2)nc2sc3c(c12)CCCC3 [Compound 25]	NR2F6 (Homo sapiens)	1.9
Nc1nonc1-c1noc(-c2cccc(COc3ccc(Cl)cc3Cl)c2)n1 [Compound 23]	NR2F6 (Homo sapiens)	1.9

====

target: ERα (Homo sapiens); construct: expressed in transfected cells; assay: Counterscreening, Firefly signal with ERα transient transfection (Firefly_ERa); assay type: cell-based; conditions: Table 15; 10 uM
Sequence (P03372 whole entry, species assumed): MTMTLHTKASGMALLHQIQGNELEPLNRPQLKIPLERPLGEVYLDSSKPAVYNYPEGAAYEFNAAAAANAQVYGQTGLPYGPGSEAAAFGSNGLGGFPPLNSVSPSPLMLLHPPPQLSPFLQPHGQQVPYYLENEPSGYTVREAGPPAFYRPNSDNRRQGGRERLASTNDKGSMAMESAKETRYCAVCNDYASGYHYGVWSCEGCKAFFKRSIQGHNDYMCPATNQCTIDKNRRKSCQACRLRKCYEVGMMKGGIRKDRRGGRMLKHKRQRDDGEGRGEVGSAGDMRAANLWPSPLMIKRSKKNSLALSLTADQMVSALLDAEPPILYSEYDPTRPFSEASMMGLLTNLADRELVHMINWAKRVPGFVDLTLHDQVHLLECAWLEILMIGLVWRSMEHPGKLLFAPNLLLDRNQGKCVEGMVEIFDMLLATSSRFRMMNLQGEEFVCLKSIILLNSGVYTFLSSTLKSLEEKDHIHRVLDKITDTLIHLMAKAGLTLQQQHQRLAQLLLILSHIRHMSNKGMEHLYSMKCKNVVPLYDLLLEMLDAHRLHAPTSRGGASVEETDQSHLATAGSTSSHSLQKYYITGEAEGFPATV
QUANTITY_NAME: Firefly ERalpha transient, cmpd/DMSO (mean)

COMPOUND	MEASUREMENT
CCOC(=O)c1cnc2c(C)cc(C)cc2c1N1CCC(O)CC1 [Compound Z78]	2.4
CCOC(=O)c1cnc2c(C)cc(C)cc2c1N1CCC(N(C)C)CC1 [Compound Z68]	1.5
COc1cccc(-c2noc(Cn3ncccc3=O)n2)c1 [Compound Z5]	2.5
CC(=O)Nc1ccc(NS(C)(=O)=O)c2nonc12 [Compound Z15]	1.1
CCOC(=O)c1cnc2c(C)cc(C)cc2c1NCCCN1CCCCC1 [Compound Z19]	12.7
